Molecular target: EGFR (human)
measured attribute: pIC50
Give bare numbers, as −log10 of the molar value.

1. N#CN1CCC[C@@H](n2nc(-c3ccc(CNS(=O)(=O)c4cccc(F)c4)cc3)c3c(N)ncnc32)C1 ... 6.57
2. C=CC(=O)N1CCC[C@@H](n2nc(-c3ccc(CNS(=O)(=O)c4ccc(C)cc4OC)cc3)c3c(N)ncnc32)C1 ... 6.49
3. C=CC(=O)N1CCC[C@@H](n2nc(-c3ccc(CNS(=O)(=O)c4cc(C)ccc4C)cc3)c3c(N)ncnc32)C1 ... 6.71

# map each compound to its pIC50
1. C=CC(=O)N1CCC[C@@H](n2nc(-c3ccc(CNS(=O)(=O)c4ccc(C)cc4F)cc3)c3c(N)ncnc32)C1
2. C=CC(=O)N1CCC[C@@H](n2nc(-c3ccc(CNS(=O)(=O)c4ccc(Cl)cc4)cc3)c3c(N)ncnc32)C1
3. C=CC(=O)N1CCC[C@@H](n2nc(-c3ccc(CNS(=O)(=O)c4ccccc4)cc3)c3c(N)ncnc32)C1
4. C=CC(=O)N1CCC[C@@H](n2nc(-c3ccc(CNS(=O)(=O)c4cccc(F)c4)cc3)c3c(N)ncnc32)C1
5. C=CC(=O)N1CCC[C@@H](n2nc(-c3ccc(CNS(=O)(=O)c4ccccc4C(F)(F)F)cc3)c3c(N)ncnc32)C1

1. 6.76
2. 7.22
3. 6.58
4. 7.09
5. 7.06

I would be grateful if you could provide pIC50 for each of the following entries.
1. C=CC(=O)N1CCC[C@@H](n2nc(-c3ccc(CNS(=O)(=O)c4ccccc4Cl)cc3)c3c(N)ncnc32)C1
2. C=CC(=O)N1CCC[C@@H](n2nc(-c3ccc(CNS(=O)(=O)c4ccccc4OC(F)(F)F)cc3)c3c(N)ncnc32)C1
3. C=CC(=O)N1CCC[C@@H](n2nc(-c3ccc(CNS(=O)(=O)c4ccc(F)cc4F)cc3)c3c(N)ncnc32)C1

6.78
6.34
6.91

For every item below, please supply its pIC50.
1. C=CC(=O)N1CCC[C@@H](n2nc(-c3ccc(CNS(=O)(=O)c4ccc(C)cc4)cc3)c3c(N)ncnc32)C1
2. C=CC(=O)N1CCC[C@@H](n2nc(-c3ccc(CNS(=O)(=O)CCC(F)(F)F)cc3)c3c(N)ncnc32)C1
3. C=CC(=O)N1CCC[C@@H](n2nc(-c3ccc(CNS(=O)(=O)c4cccc(OC)c4)cc3)c3c(N)ncnc32)C1
4. C=CC(=O)N1CCC[C@@H](n2nc(-c3ccc(CNS(=O)(=O)C4CCCCC4)cc3)c3c(N)ncnc32)C1
5. C=CC(=O)N1CCC[C@@H](n2nc(-c3ccc(CNS(=O)(=O)c4c(F)cccc4F)cc3)c3c(N)ncnc32)C1

[7.04, 6.56, 6.54, 7.35, 7.02]

Name the recorded pIC50 of the compound listed here: C=CC(=O)N1CCC[C@@H](n2nc(-c3ccc(CNS(=O)(=O)c4ccc(OC)cc4)cc3)c3c(N)ncnc32)C1
6.89

Origin of measurements: the Kinase Knowledgebase extract (Sharma et al. 2016)
